From: paper PMC11360483

- System: H. influenzae
- Test details: microbe, parasite or virus in culture
- Assay type: cell-based
- Measurement parameters: Haemophilus influenzae, 24 h
Catalogue of MIC readings, one per entry.

- Compound: "CC(C)(O)c1ccc2c(c1)CC[C@H]1[C@](C)(C(=O)O)CCC[C@]21C [Compound 4, 15-Hydroxydehydroabietic acid]"
  Assayed target: "H. influenzae"
  MIC: "15.4 µM"
- Compound: "CC(C)C1=CC2=CC[C@@H]3[C@](C)(CCC[C@@]3(C)C(=O)O)[C@H]2C[C@@H]1O [Compound 2, 12α-Hydroxyabietic acid]"
  Assayed target: "H. influenzae"
  MIC: "23.5 µM"
- Compound: "CC(C)(O)C1=CC2=CCC3[C@](C)(CCC[C@@]3(C)C(=O)O)C2CC1=O (stereo partly shown) [Compound 1, 15-Hydroxy-12-oxo-abietic acid]"
  Assayed target: "H. influenzae"
  MIC: "28.3 µM"
- Compound: "CC1=C2C=C3CCC4C(C)(C)CCC[C@]4(C)C3CC2OC1=O (single isomer, unassigned; (-)) [Compound 3, (−)-Jolkinolide E]"
  Assayed target: "H. influenzae"
  MIC: "4.89 µM"

###

- Tested on: C. violaceum
- Test details: Anti-biofilm activity on C. violaceum
- Format: cell-based, Chromobacterium violaceum
Counter-ions that a name gives are not always drawn.
Label label 1 when BIC < 6 µM; otherwise label 0.

- Compound: "CC(C)(O)C1=CC2=CCC3[C@](C)(CCC[C@@]3(C)C(=O)O)C2CC1=O (some centres unmarked) [Compound 1, 15-Hydroxy-12-oxo-abietic acid]"
  Assigned class: "label 0"
- Compound: "CC(C)(O)c1ccc2c(c1)CC[C@H]1[C@](C)(C(=O)O)CCC[C@]21C [Compound 4, 15-Hydroxydehydroabietic acid]"
  Assigned class: "label 1"
- Compound: "O=C(O)c1cn(C2CC2)c2cc(N3CCNCC3)c(F)cc2c1=O [CIP, Ciprofloxacin hydrochloride, reference compound]"
  Assigned class: "label 1"
- Compound: "CC1=C2C=C3CCC4C(C)(C)CCC[C@]4(C)C3CC2OC1=O (single isomer, unassigned; (-)) [Compound 3, (−)-Jolkinolide E]"
  Assigned class: "label 1"
- Compound: "CC(C)C1=CC2=CC[C@@H]3[C@](C)(CCC[C@@]3(C)C(=O)O)[C@H]2C[C@@H]1O [Compound 2, 12α-Hydroxyabietic acid]"
  Assigned class: "label 0"

###

The entries below come with measured Quorum Sensing Inhibition at 24 h Anti-QS ± SEM values attached.
- System: S. aureus
- Assay type: cell-based, Staphylococcus aureus
Measured parameter: Quorum Sensing Inhibition at 24 h Anti-QS ± SEM (µM)

- Compound: "CC(C)(O)c1ccc2c(c1)CC[C@H]1[C@](C)(C(=O)O)CCC[C@]21C [Compound 4, 15-Hydroxydehydroabietic acid]"
  Measurement: 10.08
- Compound: "CC(C)(O)C1=CC2=CCC3[C@](C)(CCC[C@@]3(C)C(=O)O)C2CC1=O (stereo partly shown) [Compound 1, 15-Hydroxy-12-oxo-abietic acid]"
  Measurement: 12.24
- Compound: "CC1=C2C=C3CCC4C(C)(C)CCC[C@]4(C)C3CC2OC1=O (single isomer, unassigned; (-)) [Compound 3, (−)-Jolkinolide E]"
  Measurement: 4.88
- Compound: "CC(C)C1=CC2=CC[C@@H]3[C@](C)(CCC[C@@]3(C)C(=O)O)[C@H]2C[C@@H]1O [Compound 2, 12α-Hydroxyabietic acid]"
  Measurement: 11.81

###

- Tested on: C. violaceum
- Assay type: cell-based, Chromobacterium violaceum
Where a name gives a salt, the structure may show the parent alone.
Measured parameter: Anti-QS (µM)

- Molecule: "CC1=C2C=C3CCC4C(C)(C)CCC[C@]4(C)C3CC2OC1=O (single isomer, unassigned; (-)) [Compound 3, (−)-Jolkinolide E]"
  Unit abbreviation: "µM"
  Measurement: 0.94
- Molecule: "CC(C)(O)c1ccc2c(c1)CC[C@H]1[C@](C)(C(=O)O)CCC[C@]21C [Compound 4, 15-Hydroxydehydroabietic acid]"
  Unit abbreviation: "µM"
  Measurement: 1.16
- Molecule: "CC(C)(O)C1=CC2=CCC3[C@](C)(CCC[C@@]3(C)C(=O)O)C2CC1=O (some centres unmarked) [Compound 1, 15-Hydroxy-12-oxo-abietic acid]"
  Unit abbreviation: "µM"
  Measurement: 4.83
- Molecule: "O=C(O)c1cn(C2CC2)c2cc(N3CCNCC3)c(F)cc2c1=O [CIP, Ciprofloxacin hydrochloride, reference compound]"
  Unit abbreviation: "µM"
  Measurement: 1.51
- Molecule: "CC(C)C1=CC2=CC[C@@H]3[C@](C)(CCC[C@@]3(C)C(=O)O)[C@H]2C[C@@H]1O [Compound 2, 12α-Hydroxyabietic acid]"
  Unit abbreviation: "µM"
  Measurement: 3.55

###

- Test details: WST-1 cytotoxicity assay, cell line not singled out
- Measurement parameters: human, CC50, cell line not singled out; for the compounds
*1 amine or outer side, *2 acyl side, *3 side chain or, on linkers, in order; H or OH if unused. Where a SMILES comes first, the peptide text is derived from it. Bridges are numbered along the chain shown (N, C = ends). Roman numbers before positions name the chains, in order. [ ]: non-standard residue; d: D form. Actinocin(9to1) = Cc1c2oc3c(C)ccc(C(=O)[*:1])c3nc-2c(C(=O)[*:2])c(N)c1=O; NMeV = CN[C@H](C(=O)O)C(C)C; Sar = CNCC(=O)O

- Compound: "Cc1c2oc3c(C)ccc(C(=O)N[C@@H]4C(=O)N[C@H](C(C)C)C(=O)N5CCC[C@H]5C(=O)N(C)CC(=O)N(C)[C@@H](C(C)C)C(=O)O[C@@H]4C)c3nc-2c(C(=O)N[C@@H]2C(=O)N[C@H](C(C)C)C(=O)N3CCC[C@H]3C(=O)N(C)CC(=O)N(C)[C@@H](C(C)C)C(=O)O[C@@H]2C)c(N)c1=O [ACTD, Actinomycin D, reference compound] (I: T[dV]P[Sar][NMeV] / II: T[dV]P[Sar][NMeV]; ester I:1-I:C, II:1-II:C; linker I:N-II:N via Actinocin(9to1))"
  CC50 at 24 h [nM]: 8

###

- Test details: WST-1 cytotoxicity (viability) assay, control cell line
- Measurement parameters: human

- Molecule: "CC1=C2C=C3CCC4C(C)(C)CCC[C@]4(C)C3CC2OC1=O (single isomer, unassigned; (-)) [Compound 3, (−)-Jolkinolide E]"
  CC50 at 24 h / µM: 71.2
- Molecule: "CC(C)C1=CC2=CC[C@@H]3[C@](C)(CCC[C@@]3(C)C(=O)O)[C@H]2C[C@@H]1O [Compound 2, 12α-Hydroxyabietic acid]"
  CC50 at 24 h / µM: 84.3
- Molecule: "CC(C)(O)C1=CC2=CCC3[C@](C)(CCC[C@@]3(C)C(=O)O)C2CC1=O (stereo partly shown) [Compound 1, 15-Hydroxy-12-oxo-abietic acid]"
  CC50 at 24 h / µM: 88.4
- Molecule: "CC(C)(O)c1ccc2c(c1)CC[C@H]1[C@](C)(C(=O)O)CCC[C@]21C [Compound 4, 15-Hydroxydehydroabietic acid]"
  CC50 at 24 h / µM: 78.9

###

- Test details: WST-1 cytotoxicity assay, cell line not singled out
- Measurement parameters: human, CC50 of positive control, value given in the method for the extracts; cell line not stated
*1 amine or outer side, *2 acyl side, *3 side chain or, on linkers, in order; H or OH if unused. Where a SMILES comes first, the peptide text is derived from it. Bridges are numbered along the chain shown (N, C = ends). Roman numbers before positions name the chains, in order. [ ]: non-standard residue; d: D form. Actinocin(9to1) = Cc1c2oc3c(C)ccc(C(=O)[*:1])c3nc-2c(C(=O)[*:2])c(N)c1=O; NMeV = CN[C@H](C(=O)O)C(C)C; Sar = CNCC(=O)O
Measured parameter: CC50 at 24 h (µg/mL)

- Molecule: "Cc1c2oc3c(C)ccc(C(=O)N[C@@H]4C(=O)N[C@H](C(C)C)C(=O)N5CCC[C@H]5C(=O)N(C)CC(=O)N(C)[C@@H](C(C)C)C(=O)O[C@@H]4C)c3nc-2c(C(=O)N[C@@H]2C(=O)N[C@H](C(C)C)C(=O)N3CCC[C@H]3C(=O)N(C)CC(=O)N(C)[C@@H](C(C)C)C(=O)O[C@@H]2C)c(N)c1=O [ACTD, Actinomycin D, reference compound] (I: T[dV]P[Sar][NMeV] / II: T[dV]P[Sar][NMeV]; ester I:1-I:C, II:1-II:C; linker I:N-II:N via Actinocin(9to1))"
  Unit abbreviation: "µg/mL"
  Measurement: 0.01

###

- Tested on: NF-κB
- Test details: NF-κB inhibition assay (LPS-stimulated) in THP-1
- Type: cell-based
- Measurement parameters: Homo sapiens; THP-1, LPS-stimulated, 24 h; read-out: NF-κB Inhibition at 24 h IC50 ± SEM
Measured parameter: IC50 (µM)

- Compound: "CC(C)(O)C1=CC2=CCC3[C@](C)(CCC[C@@]3(C)C(=O)O)C2CC1=O (stereo partly shown) [Compound 1, 15-Hydroxy-12-oxo-abietic acid]"
  Assayed target: "NF-κB"
  Measurement: 43.4
- Compound: "CC1=C2C=C3CCC4C(C)(C)CCC[C@]4(C)C3CC2OC1=O (single isomer, unassigned; (-)) [Compound 3, (−)-Jolkinolide E]"
  Assayed target: "NF-κB"
  Measurement: 29.4
- Compound: "CC(C)(O)c1ccc2c(c1)CC[C@H]1[C@](C)(C(=O)O)CCC[C@]21C [Compound 4, 15-Hydroxydehydroabietic acid]"
  Assayed target: "NF-κB"
  Measurement: 23.4
- Compound: "CC(C)C1=CC2=CC[C@@H]3[C@](C)(CCC[C@@]3(C)C(=O)O)[C@H]2C[C@@H]1O [Compound 2, 12α-Hydroxyabietic acid]"
  Assayed target: "NF-κB"
  Measurement: 32.6
